Target: T1, c-erbB-2 ECD with a Ser-Gly-His6 C-terminal fusion (UniProt P04626 23-652)
T1 construct: extracellular domain; Expressed from CHO cells, IMAC purified; coupled to a CM5 chip, coated on plates, or biotinylated with NHS-LC-biotin; also called c-erbB-2 extracellular domain; biotinylated c-erbB-2 ECD
Experiment: SPR BIAcore
Measured koff, listed per entry for reference.
Just the number plus its unit, please.

Below are worked cases with known answers.
1) C6-B47D2 (scFv, Combined B47 and D2 mutations on C6ML3-9) scFv: QVQLLQSGAELKKPGESLKISCKGSGYSFTSYWIAWVRQMPGKGLEYMGLIYPGDSDTKYSPSFQGQVTISVDKSVSTAYLQWSSLKPSDSAVYFCARHDVGYCTDRSCAKWPEWLGVWGQGTLVTVSSGGGGSGGGGSGGGGSQSVLTQPPSVSAAPGQKVTISCSGSSSNIGNNYVSWYQQLPGTAPKLLIYGHTNRPAGVPDRFSGSKSGTSASLAISGFRSEDEADYYCASWDYTLSGWVFGGGTKLTVLG	4.3e-05 s⁻¹
2) C6-B1D6 (scFv, Combined B1 and D6 mutations on C6ML3-9) scFv: QVQLLQSGAELKKPGESLKISCKGSGYSFTSYWIAWVRQMPGKGLEYMGLIYPGDSDTKYSPSFQGQVTISVDKSVSTAYLQWSSLKPSDSAVYFCARHDVGYCTDRTCAKWPEWMYPWGQGTLVTVSSGGGGSGGGGSGGGGSQSVLTQPPSVSAAPGQKVTISCSGSSSNIGNNYVSWYQQLPGTAPKLLIYGHTNRPAGVPDRFSGSKSGTSASLAISGFRSEDEADYYCASWDYTLSGWVFGGGTKLTVLG	1.3e-05 s⁻¹
3) C6-B1D1 (scFv, Combined B and D library mutations on C6ML3-9) scFv: QVQLLQSGAELKKPGESLKISCKGSGYSFTSYWIAWVRQMPGKGLEYMGLIYPGDSDTKYSPSFQGQVTISVDKSVSTAYLQWSSLKPSDSAVYFCARHDVGYCTDRTCAKWPEWLHVWGQGTLVTVSSGGGGSGGGGSGGGGSQSVLTQPPSVSAAPGQKVTISCSGSSSNIGNNYVSWYQQLPGTAPKLLIYGHTNRPAGVPDRFSGSKSGTSASLAISGFRSEDEADYYCASWDYTLSGWVFGGGTKLTVLG	1.5e-05 s⁻¹

I would be grateful if you could share the reported koff for C6-B47D6 (scFv, Combined B47 and D6 mutations on C6ML3-9) scFv: QVQLLQSGAELKKPGESLKISCKGSGYSFTSYWIAWVRQMPGKGLEYMGLIYPGDSDTKYSPSFQGQVTISVDKSVSTAYLQWSSLKPSDSAVYFCARHDVGYCTDRSCAKWPEWMYPWGQGTLVTVSSGGGGSGGGGSGGGGSQSVLTQPPSVSAAPGQKVTISCSGSSSNIGNNYVSWYQQLPGTAPKLLIYGHTNRPAGVPDRFSGSKSGTSASLAISGFRSEDEADYYCASWDYTLSGWVFGGGTKLTVLG . 3e-05 s⁻¹
